Target: CDK12/CycK (Homo sapiens, UniProt Q9NYV4)
Sequence (Q9NYV4 with tags, fused parts or gaps): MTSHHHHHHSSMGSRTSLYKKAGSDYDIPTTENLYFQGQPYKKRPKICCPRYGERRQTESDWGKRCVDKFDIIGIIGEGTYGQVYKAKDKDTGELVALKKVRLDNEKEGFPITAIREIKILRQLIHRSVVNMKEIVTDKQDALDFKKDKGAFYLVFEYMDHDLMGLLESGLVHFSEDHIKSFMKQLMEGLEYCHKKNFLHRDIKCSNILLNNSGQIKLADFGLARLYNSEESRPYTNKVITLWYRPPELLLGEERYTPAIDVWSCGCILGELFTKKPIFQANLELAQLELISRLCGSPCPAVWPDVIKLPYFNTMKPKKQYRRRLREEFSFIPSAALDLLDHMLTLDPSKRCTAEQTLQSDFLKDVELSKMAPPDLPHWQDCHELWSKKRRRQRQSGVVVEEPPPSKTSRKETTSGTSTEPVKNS
Sequence (O75909 1-300 partner limits assumed): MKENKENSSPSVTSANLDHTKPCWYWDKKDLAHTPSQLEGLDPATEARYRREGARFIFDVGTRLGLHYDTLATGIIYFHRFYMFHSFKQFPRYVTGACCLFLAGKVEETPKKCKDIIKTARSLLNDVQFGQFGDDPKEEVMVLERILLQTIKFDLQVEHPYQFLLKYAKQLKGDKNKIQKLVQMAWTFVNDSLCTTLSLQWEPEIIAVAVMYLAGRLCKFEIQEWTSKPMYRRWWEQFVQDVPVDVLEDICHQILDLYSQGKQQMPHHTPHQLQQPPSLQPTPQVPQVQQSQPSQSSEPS
Experiment: CDK12/CycK high ATP kinase assay (TR-FRET, 2 mM ATP)
Conditions: 2 mM ATP (high ATP); median; read-out: CDK12/CyclinK, 2 mM ATP (high ATP), IC50-[mol/l] (median)
# if measured IC50 < 3 µM: T  # else: F

compound	measuredTarget	cat
Fc1cc2nc(CNc3nc(N4CCOCC4)nc4c(Br)cnn34)[nH]c2cc1Cl [Example 336]	CDK12/CycK (Homo sapiens, UniProt Q9NYV4)	T
COC1CCN(c2nc(NCc3nc4ccccc4[nH]3)n3ncc(Br)c3n2)CC1 [Example 62]	CDK12/CycK (Homo sapiens, UniProt Q9NYV4)	F
CN1CCCN(c2nc(NCc3nc4ccccc4[nH]3)n3ncc(Br)c3n2)CC1 [Example 390]	CDK12/CycK (Homo sapiens, UniProt Q9NYV4)	F
Cc1cnn2c(NCc3nc4c(F)c(F)ccc4[nH]3)nc(N3CC4CCC(C3)N4)nc12 [Example 400]	CDK12/CycK (Homo sapiens, UniProt Q9NYV4)	F
Fc1cccc2[nH]c(CNc3nc(N4C[C@@H]5C[C@H]4CO5)nc4c(C5CC5)cnn34)nc12 [Example 183]	CDK12/CycK (Homo sapiens, UniProt Q9NYV4)	F
c1ccc2[nH]c(CNc3nc(N4CCOCC4)nc4c(C5CCC5)cnn34)nc2c1 [Example 263]	CDK12/CycK (Homo sapiens, UniProt Q9NYV4)	F
CC[C@H](CO)Nc1nc(NCc2nc3ccccc3[nH]2)n2ncc(Br)c2n1 [Example 368]	CDK12/CycK (Homo sapiens, UniProt Q9NYV4)	F
Fc1ccc2[nH]c(CNc3nc(N4CCOCC4)nc4c(C5CCCC5)cnn34)nc2c1F [Example 262]	CDK12/CycK (Homo sapiens, UniProt Q9NYV4)	F
Cc1ccc2[nH]c(CNc3nc(N4C[C@@H](C)N[C@@H](C)C4)nc4c(C5CC5)cnn34)nc2c1 [Example 194]	CDK12/CycK (Homo sapiens, UniProt Q9NYV4)	F
Fc1cc2nc(CNc3nc(N4CC5CCC(C4)N5)nc4c(C5CC5)cnn34)[nH]c2cc1F [Example 325]	CDK12/CycK (Homo sapiens, UniProt Q9NYV4)	F
CN1CCN(c2nc(NCc3nc4c(OC(F)(F)F)cccc4[nH]3)n3ncc(Br)c3n2)CC1 [Example 376]	CDK12/CycK (Homo sapiens, UniProt Q9NYV4)	F
CN(CC(C)(C)O)c1nc(NCc2nc3c(F)c(F)ccc3[nH]2)n2ncc(Cl)c2n1 [Example 359]	CDK12/CycK (Homo sapiens, UniProt Q9NYV4)	T
Cc1cc(-c2cnn3c(NCc4nc5ccccc5[nH]4)nc(N4CCN(C)CC4)nc23)ccn1 [Example 243]	CDK12/CycK (Homo sapiens, UniProt Q9NYV4)	F
c1ccc2[nH]c(CNc3nc(N4C[C@@H]5C[C@H]4CO5)nc4c(C5CC5)cnn34)nc2c1 [Example 254]	CDK12/CycK (Homo sapiens, UniProt Q9NYV4)	F
OC[C@@H]1CCCCN1c1nc(NCc2nc3cc(F)ccc3[nH]2)n2ncc(C3CC3)c2n1 [Example 191]	CDK12/CycK (Homo sapiens, UniProt Q9NYV4)	T
Brc1cnn2c(NCc3ncc(-c4cccnc4)[nH]3)nc(N3CCOCC3)nc12 [Example 84]	CDK12/CycK (Homo sapiens, UniProt Q9NYV4)	T
Fc1ccc2[nH]c(CNc3nc(N4CCOCC4)nc4c(C(F)(F)F)cnn34)nc2c1 [Example 273]	CDK12/CycK (Homo sapiens, UniProt Q9NYV4)	T
Fc1cccc2[nH]c(CNc3nc(N4C[C@H]5CC[C@@H](C4)N5)nc4c(C5CC5)cnn34)nc12 [Example 296]	CDK12/CycK (Homo sapiens, UniProt Q9NYV4)	T
COc1ccccc1-c1cnc(CNc2nc(N3CCOCC3)nc3c(Br)cnn23)[nH]1 [Example 87]	CDK12/CycK (Homo sapiens, UniProt Q9NYV4)	T
Brc1cnn2c(NCc3nnc(-c4ccccc4)[nH]3)nc(N3CCNCC3)nc12.O=CO [Example 119, formate]	CDK12/CycK (Homo sapiens, UniProt Q9NYV4)	F
Brc1cnn2c(NCc3nnc(-c4ccccc4)[nH]3)nc(N3C[C@H]4C[C@@H]3CO4)nc12 [Example 118]	CDK12/CycK (Homo sapiens, UniProt Q9NYV4)	F
C[C@@H]1CN(c2nc(NCc3nc4c(F)cccc4[nH]3)n3ncc(Br)c3n2)C[C@H](C)O1 [Example 109]	CDK12/CycK (Homo sapiens, UniProt Q9NYV4)	T
CN1CCN(c2nc(NCc3nc4cc(Cl)c(Cl)cc4[nH]3)n3ncc(Br)c3n2)CC1 [Example 330]	CDK12/CycK (Homo sapiens, UniProt Q9NYV4)	F
CC[C@H](COC)Nc1nc(NCc2nc3ccccc3[nH]2)n2ncc(Br)c2n1 [Example 369]	CDK12/CycK (Homo sapiens, UniProt Q9NYV4)	F
Brc1cnn2c(NCc3ncc(-c4ccccn4)[nH]3)nc(N3CCOCC3)nc12 [Example 90]	CDK12/CycK (Homo sapiens, UniProt Q9NYV4)	F
CN(CC(C)(C)O)c1nc(NCc2nc3cc(F)c(Cl)cc3[nH]2)n2ncc(Br)c2n1 [Example 338]	CDK12/CycK (Homo sapiens, UniProt Q9NYV4)	T
Fc1ccc2[nH]c(CNc3nc(N4CCN5CCC4CC5)nc4c(C(F)(F)F)cnn34)nc2c1F [Example 407]	CDK12/CycK (Homo sapiens, UniProt Q9NYV4)	T
OC1(C(F)(F)F)CCN(c2nc(NCc3nc4ccccc4[nH]3)n3ncc(Br)c3n2)C1 (centres unmarked) [Example 200]	CDK12/CycK (Homo sapiens, UniProt Q9NYV4)	F
NCCCc1cccc2[nH]c(CNc3nc(N4CCOCC4)nc4c(Br)cnn34)nc12.O=CO [Example 114]	CDK12/CycK (Homo sapiens, UniProt Q9NYV4)	F
Fc1ccc2[nH]c(CNc3nc(N4CCOCC4)nc4c([C@@H]5CC5(F)F)cnn34)nc2c1 (single isomer, unassigned) [Example 315]	CDK12/CycK (Homo sapiens, UniProt Q9NYV4)	F
C[C@@H]1CN(c2nc(NCc3nc4ccccc4[nH]3)n3ncc(Br)c3n2)C[C@H](C)N1C [Example 129]	CDK12/CycK (Homo sapiens, UniProt Q9NYV4)	F
CN1CCN(c2nc(NCc3nc4ccccc4[nH]3)n3ncc(Br)c3n2)CC1 [Example 18]	CDK12/CycK (Homo sapiens, UniProt Q9NYV4)	F
